Can you tell me IC50 for the items I'm about to list?
Molecular target: T1, human parathyroid hormone receptor (PTHR) (human, UniProt Q03431 27-593)
T1 construct: Assayed in membranes of HKRK-B7 cells or of transiently transfected COS-7 cells, or on intact HKRK-B7/HKRK-B64/COS-7 cells; RG = co-transfected with negative-dominant Galpha-s; R0 = receptor alone plus GTPgammaS; also called hPTHR; human PTH receptor
T1 sequence: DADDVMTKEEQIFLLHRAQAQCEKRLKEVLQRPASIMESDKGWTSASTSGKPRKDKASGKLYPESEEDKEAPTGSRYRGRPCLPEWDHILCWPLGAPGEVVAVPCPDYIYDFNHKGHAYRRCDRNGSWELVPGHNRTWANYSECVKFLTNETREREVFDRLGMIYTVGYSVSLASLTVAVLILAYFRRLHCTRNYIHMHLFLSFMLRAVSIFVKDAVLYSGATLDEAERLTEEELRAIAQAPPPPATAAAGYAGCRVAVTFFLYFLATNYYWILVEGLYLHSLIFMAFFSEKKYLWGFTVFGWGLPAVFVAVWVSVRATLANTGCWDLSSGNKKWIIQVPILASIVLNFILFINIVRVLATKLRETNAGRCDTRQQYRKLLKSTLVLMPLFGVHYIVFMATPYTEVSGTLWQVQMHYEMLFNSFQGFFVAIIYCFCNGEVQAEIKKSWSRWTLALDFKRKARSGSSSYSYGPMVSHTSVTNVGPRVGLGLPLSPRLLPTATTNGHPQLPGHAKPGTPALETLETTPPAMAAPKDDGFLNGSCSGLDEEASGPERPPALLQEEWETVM
Test: competition vs 125I-PTH(1-34) + GTPgammaS, COS-7 membranes hPTHR (R0)
Square brackets hold non-standard residues; d marks the D form. Ends that are not written are not given here. hArg = N=C(N)NCCCC[C@H](N)C(=O)O; Nle = CCCC[C@H](N)C(=O)O; Aib = CC(C)(N)C(=O)O
Numbers only, in µM.

Record IC50 for all entries; do not skip any.
1. SVSEHQLMHNLGKHLNSMERVEWLRKKLQDVHNF-NH2 [[His^5]hPTH(1-34)NH2]
2. AVSEIQLMHNLGKHLASVERMQWLRKKLQDVHNF-NH2 (also called r(rat)PTH(1-34)NH2; rat-PTH(1-34)) [rPTH(1-34)NH2]

Result:
0.122
0.0023

For every item in the list below, what is its measured IC50?
1. [Aib]V[Aib]EIQL[Nle]HQ[hArg]AKWY-NH2 (N-terminus assumed; SMILES CCCC[C@H](NC(=O)[C@H](CC(C)C)NC(=O)[C@H](CCC(N)=O)NC(=O)[C@@H](NC(=O)[C@H](CCC(=O)O)NC(=O)C(C)(C)NC(=O)[C@@H](NC(=O)C(C)(C)N)C(C)C)[C@@H](C)CC)C(=O)N[C@@H](Cc1c[nH]cn1)C(=O)N[C@@H](CCC(N)=O)C(=O)N[C@@H](CCCCNC(=N)N)C(=O)N[C@@H](C)C(=O)N[C@@H](CCCCN)C(=O)N[C@@H](Cc1c[nH]c2ccccc12)C(=O)N[C@@H](Cc1ccc(O)cc1)C(N)=O, also called [Aib^1,3,M]rPTH(1-15)NH2; [Aib^1,3,M]PTH(1-15)) [[Aib^1,3,Nle^8,Gln^10,homoarginine^11,Ala^12,Trp^14,Tyr^15]rPTH(1-15)NH2]
2. AVSEHQLMHNLGKHLASVERMQWLRKKLQDVHNF-NH2 [[His^5]rPTH(1-34)NH2]

Result:
1.03
0.026
